kon overview
Biological target: T1, hANGPTL3(17-169)-mFc (human)
T1 construct: also called N-terminal coiled-coil domain of hANGPTL3 with a C-terminal mouse Fc fusion
T1 chain: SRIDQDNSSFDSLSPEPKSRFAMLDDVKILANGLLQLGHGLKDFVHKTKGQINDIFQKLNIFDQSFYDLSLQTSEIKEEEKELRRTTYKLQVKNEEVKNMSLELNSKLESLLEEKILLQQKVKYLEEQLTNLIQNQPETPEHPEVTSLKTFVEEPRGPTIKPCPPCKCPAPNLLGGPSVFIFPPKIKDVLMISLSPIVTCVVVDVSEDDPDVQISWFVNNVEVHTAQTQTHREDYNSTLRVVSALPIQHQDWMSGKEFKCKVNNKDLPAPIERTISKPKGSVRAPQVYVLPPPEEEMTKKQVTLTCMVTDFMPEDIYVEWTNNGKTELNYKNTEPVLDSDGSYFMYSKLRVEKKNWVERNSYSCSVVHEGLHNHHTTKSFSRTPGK
Assay: SPR Biacore, antigen captured, 25C, pH 7.4, HBS-EP
Dear colleague, please return just the value in M⁻¹ s⁻¹, with no unit written.

Here are 2 binders together with their reported answers.
BINDER	kon (M⁻¹ s⁻¹)
H4H1296P (antibody, IgG4, V domains shown) VH: QVQLVESGGVSVKPGGSLRLSCAASGFTFSDYYMSWIRQAPGKGLEWVSYIGSSGTNDYYADSVKGRFTISRDNAKNSLYLQMDSLRAEDTAVYYCARDSSQMGFDYWGQGTLVTVSS VL: DIQMTQSPSSLSASVGDRVTITCRASQNIINFLNWYQQRPGKAPQLLIYVAASLQSGVPSRFTGSGYGTDFTLTISSLQPEDFATYYCQQTYTNPLTFGGGTKVEIKR	641000
H4H1268S (antibody, IgG4, V domains shown) VH: QVQLQQSGPGLVKPSQTLSLTCAISGDSVSSNSPAWNWIRQSPSRGLEWLGRTYYRSKWYNDYAVSVRGRITINPDTSNNQFSLHLNSVTPEDTAMYYCARDKGLTARPTYFDYWGQGTLVTVSS VL: DIQMTQSPSTLSASVGDRVTITCRASQSINYWLAWYQQKPGKAPKPLIYKASSLESGVPSRFSGSGSGTEFTLTISSLQPDDFTTYYCQQYNSYSPTFGQGTKLEIKR	1.16e+06

Now turn to the next binder.
Could you tell me which kon is on file for H4H1279P (antibody, IgG4, V domains shown) VH: QVQLVESGGGLVKPGGSLRLSCAASGFTFSDYYMSWIRQAPGKGLEWVSYIGSSGVNMYYADSVKGRFTISRDNAKNSLYLEMNSLRAEDTAVYYCARDSSQLGFDYWGQGTLVTVSS VL: DIQMTQSPSSLSASVGDRVTITCRTSQNIINFLNWYQQKPGKAPKLLIYTTSTLQSGVPSRFSGSGSGTDFTLSINSLQPEDFATYFCQQTYSNPLTFGGGTKLEIKR ? 658000
